experiment: qHTS assay to identify small molecule antagonists of the sonic hedgehog signaling (Shh) pathway (AID 1259369); conditions: NIH/3T3 Gli1-Luc reporter, Shh antagonist, luminescence 24 h; series mostly up to 92.4 µM; note: nearly all actives have a fitted effect of over 45% in size; note: potency is the fitted concentration of half-maximal effect
Records with an inconclusive call do not appear. The source made the active and inactive calls. Calls come from the whole dose curve.

| compound | Potency |
| --- | --- |
| O=c1c2ccccc2oc2ccccc12 | inactive |
| CC(C)C/C=C(\C=O)c1ccccc1 | inactive |
| Cc1ccc(Cl)c(OCC(O)CNC(C)(C)C)c1 (stereo not drawn) | inactive |
| CC(CCl)OC(C)CCl (stereo not drawn) | inactive |
| CCC(=O)O[C@@H]1C[C@H]2CC[C@]1(C)C2(C)C | inactive |
| CCCCCCCCCCCC(=O)OCC | inactive |
| CC(C)(O)C(=O)O | inactive |
| CC(C)NC(=O)c1ccccc1N | inactive |
| O=C(Nc1ccccc1)c1cc([N+](=O)[O-])ccc1Cl | 21.7 µM (active) |
| CCOc1ccc2c(c1)C(C)CC(C)(C)N2 (stereo not drawn) | inactive |
| O=C1c2ccccc2C(=O)C1c1ccc2ccccc2n1 | inactive |
| CCC1=C(C)CN(C(=O)NCCc2ccc(S(=O)(=O)NC(=O)NC3CCC(C)CC3)cc2)C1=O (stereo not drawn) | inactive |
| CCCCCCCCC(=O)OCC(C)OC(=O)CCCCCCCC (stereo not drawn) | inactive |

====

assay: qHTS assay to identify small molecule antagonists of the androgen receptor (AR) signaling pathway using the MDA cell line in the presence of 0.5 nM R1881 - cell viability counter screen (AID 1259242); settings: MDA-kb2 viability, CellTiter-Fluor protease fluorescence, 16 h; series mostly up to 92.4 µM; note: % is set by controls: 0 for no effect and ±100 for the full control effect; nearly all actives have a fitted effect of over 45% in size
Records with an inconclusive call do not appear. The source made the active and inactive calls. The call rests on the fitted dose curve; in most records, active means well fitted cell-killing curve with a large enough effect in the repeat runs; inconclusive means weak or mixed curves, or effect the other way; inactive means flat fitted curve, though single readings scatter.

| compound | viability change, negative = cytotoxic |
| --- | --- |
| c1ccc(-c2ccc(-c3ccccc3)cc2)cc1 | 1.4% [at 19 µM] (inactive) |
| SCCOCCOCCS | inactive |
| O=C(C1CCCCC1)N1CC(=O)N2CCCc3ccccc3C2C1 (centres undefined) | inactive |
| CC1=CC(=C(c2ccc(N)cc2)c2ccc(N)cc2)C=CC1=N | -23% [at 8.39 µM] (inactive) |

====

Catalogue of compounds with associated Potency
target: Nuclear receptor ROR-gamma (Homo sapiens); test: qHTS assay to identify small molecule antagonists of the retinoid-related orphan receptor gamma (ROR-gamma) signaling pathway (AID 1159521; note: potency is the fitted concentration of half-maximal effect; nearly all actives have a fitted effect of over 50% in size); details: Tet-on RORgamma CHO cells, RORE-luciferase, 16 h; series mostly up to 92.4 µM
Inconclusive results are not listed. Activity calls are given as the source filed them. Calls follow the shape of the dose curve; as a rule, active = well fitted inhibition curve with a large enough effect in the repeat runs; inconclusive = weak or mixed curves, or effect the other way; inactive = no such curve, though single readings can be large or run the other way.

| structure-as-smiles | Potency |
| --- | --- |
| CC(C)C[C@H](NC(=O)[C@H](Cc1ccccc1)NC(=O)c1cnccn1)B(O)O | 0.0473 µM (active) |
| O=C(O)c1c2ccccc2cc2ccccc12 | 13.6 µM (active) |
| O=Cc1ccc(Cl)c([N+](=O)[O-])c1 | 54.5 µM (active) |
| CC1=C(C)C(=O)C(CCCCC#CCCCC#CCO)=C(C)C1=O | 29.8 µM (active) |

====

assay: Caspase-3/7 induction in HepG2 cells by small molecules, qHTS cell viability counter screen (AID 1346981); conditions: CellTiter-Fluor fluorescence, 17 h; series mostly up to 92.4 µM; note: % is set by controls: 0 for no effect and ±100 for the full control effect; nearly all actives have a fitted effect of over 30% in size
Inconclusive results are not listed. The source made the active and inactive calls. Calls come from the whole dose curve; as a rule, active = well fitted cell-killing curve with a large enough effect in the repeat runs; inconclusive = weak or mixed curves, or effect the other way; inactive = flat fitted curve, though single readings scatter.

| compound | outcome |
| --- | --- |
| Cc1cccc(C)c1NC(=O)CN1CCCC1 | inactive |
| CC(O)CN (configuration not stated) | inactive |
| CC(C)(O)C(=O)O | inactive |
| O=C(c1ccco1)N1CCNCC1 | inactive |
| [O-][n+]1ccc(Cl)cc1 | inactive |
| O=C(c1ccc(Cl)cc1)c1ccc(Cl)cc1 | inactive |
| CCC1=C(C)CN(C(=O)NCCc2ccc(S(=O)(=O)NC(=O)NC3CCC(C)CC3)cc2)C1=O (configuration not stated) | inactive |

====

assay: qHTS assay to test for compound auto fluorescence at 460 nm (blue) in HEK293 cells (AID 720678); settings: blue autofluorescence 405/460 nm; series mostly up to 91.3 µM; note: % is set by controls: 0 for no effect and ±100 for the full control effect
Calls of active or inactive are those of the source. The call rests on the fitted dose curve; in most records, active means well fitted curve in the direction sought with a large enough effect in the repeat runs; inconclusive means weak or mixed curves; inactive means flat fitted curve, though single readings scatter.

| compound | fluorescence, % of triamterene |
| --- | --- |
| COc1ccc(/C=C/S(=O)(=O)NC(=O)c2ccc(C)cc2Cl)cc1 | inactive |
| Cc1nc(C)c(C)nc1C | inactive |
| COc1cccc([C@H](O)C2CCN(CCc3ccc(F)cc3)CC2)c1OC | inactive |
| CCN(CCCCOC(=O)c1ccc(OC)c(OC)c1)C(C)Cc1ccc(OC)cc1 (stereo not given) | 0.0022% [at 18.6 µM] (inactive) |
| CCc1ccc(C(=O)C(C)CN2CCCCC2)cc1 (stereo not given) | inactive |
| COc1ccc(CN(CCN(C)C)c2ncccn2)cc1 | inactive |
| CCCCCCCCNC | inactive |
| CC(C)Cc1nccs1 | inactive |
| CO[C@@H]1[C@@H](O[C@@H]2O[C@H](C)[C@@H](O[C@H]3C[C@@](C)(O)[C@@H](O)[C@H](C)O3)[C@H](N(C)C)[C@H]2O)[C@@H](CC=O)C[C@@H](C)[C@@H](O[C@@H]2CC[C@H](N(C)C)[C@@H](C)O2)/C=C/C=C/C[C@@H](C)OC(=O)C[C@H]1OC(C)=O | inactive |
| c1ccc(-c2ccc(-c3ccccc3)cc2)cc1 | -0.0124% [at 18.6 µM] (inactive) |

====

experiment: qHTS assay to identify small molecule antagonists of the peroxisome proliferator-activated receptor delta (PPARd) signaling pathway - cell viability counter screen (AID 743213); conditions: PPARd-bla HEK293H viability, CellTiter-Glo luminescence, 17 h; series mostly up to 62 µM; note: nearly all actives have a fitted effect of over 50% in size; note: potency is the fitted concentration of half-maximal effect
Results filed as inconclusive are left out. The source made the active and inactive calls. Calls follow the shape of the dose curve; as a rule, active = well fitted cell-killing curve with a large enough effect in the repeat runs; inconclusive = weak or mixed curves; inactive = no such curve, though single readings can be large or run the other way.
assay-metric: Potency

| compound | result |
| --- | --- |
| O=C1c2ccccc2C(=O)C1c1ccc2ccccc2n1 | inactive |
| O=C1CCCN1CCO | inactive |
| NC(=O)c1ccccc1 | inactive |
| CCN(CC)CC(=O)OCC(=O)[C@@]1(O)CC[C@H]2[C@@H]3CCC4=CC(=O)CC[C@]4(C)[C@H]3[C@@H](O)C[C@@]21C | inactive |
| CCCCOC(=O)CC#N | 57.6 µM (active) |
| C=CC(C)(O)CC/C=C(/C)CCC=C(C)C (stereo unspecified) | inactive |

====

test: qHTS assay for identifying genotoxic compounds that show differential cytotoxicity against isogenic chicken DT40 cell lines with known DNA damage response pathways - Rad54/Ku70 mutant cell line (AID 743015); conditions: DT40 Rad54/Ku70 mutant viability, CellTiter-Glo, 40 h; series mostly up to 66.8 µM; note: nearly all actives have a fitted effect of over 60% in size
Results filed as inconclusive are left out. Activity calls are given as the source filed them. Calls follow the shape of the dose curve; as a rule, active = well fitted cell-killing curve with a large enough effect in the repeat runs; inconclusive = weak or mixed curves; inactive = no such curve, though single readings can be large or run the other way.
Outcome codes: active, inactive

| compound | qualitative-label |
| --- | --- |
| COc1cc(CNC(=O)CCCC/C=C/C(C)C)ccc1O | inactive |
| Cc1cc(SC2=C(O)C[C@@](CCc3ccc(N)cc3)(C(C)C)OC2=O)c(C(C)(C)C)cc1CO | inactive |
| CC(C)(O)C(=O)O | inactive |
| Oc1ccc(CCNCCCCCCNCCc2ccccc2)cc1O | active |
| CNc1ccccc1 | inactive |
| CC(C)(Cc1c[nH]c2ccccc12)NCC(O)COc1ccccc1C#N (stereo not drawn) | active |
| OCC(O)c1ccccc1 (stereo not drawn) | inactive |
| NC(=O)c1cc[n+](CC2=C(C(=O)[O-])N3C(=O)[C@@H](NC(=O)Cc4cccs4)[C@H]3SC2)cc1 | inactive |
| Cc1cc(N)n(-c2ccccc2)n1 | inactive |
| O=C(O)c1cc(C(=O)O)cc([N+](=O)[O-])c1 | inactive |
| CCCCOC(=O)CC#N | inactive |
| O=C1C=CCCC1 | inactive |
| CCC(CC)C(=O)O | inactive |

====

target: Nuclear receptor subfamily 1 group I member 2 (Homo sapiens) (UniProt O75469); experiment: CYP3A4 induction through human pregnane X receptor (PXR) by small molecules, qHTS assay (AID 1346984); conditions: DPX-2 HepG2 PXR, CYP3A4-luciferin luminescence, 24 h; series mostly up to 46.1 µM; note: nearly all actives have a fitted effect of over 40% in size; for activation: % is set by controls: 0 for no effect and ±100 for the full control effect
Inconclusive results are not listed. Activity calls are given as the source filed them. Calls come from the whole dose curve; as a rule, active = well fitted activation curve with a large enough effect in the repeat runs; inconclusive = weak or mixed curves; inactive = no such curve, though single readings can be large or run the other way.
Outcome codes: 1 (active), -1 (inactive)

| compound | tested-on | qualitative-label |
| --- | --- | --- |
| C/C=C1\[C@H]2C=C(C)C[C@]1(N)c1ccc(=O)[nH]c1C2 | Nuclear receptor subfamily 1 group I member 2 (Homo sapiens) (UniProt O75469) | -1 |
| CC(=O)OCC(=O)[C@@]1(O)CC[C@H]2[C@@H]3CCC4=CC(=O)C=C[C@]4(C)[C@@]3(F)[C@@H](O)C[C@@]21C | Nuclear receptor subfamily 1 group I member 2 (Homo sapiens) (UniProt O75469) | 1 |
| C[C@@H](O)[C@H]1C(=O)N2C(C(=O)O)=C(S[C@@H]3CN[C@H](CNS(N)(=O)=O)C3)[C@H](C)[C@H]12 | Nuclear receptor subfamily 1 group I member 2 (Homo sapiens) (UniProt O75469) | -1 |
| CC1=C(C)C(=O)C(C(CCCCCC(=O)O)c2ccccc2)=C(C)C1=O (centres undefined) | Nuclear receptor subfamily 1 group I member 2 (Homo sapiens) (UniProt O75469) | 1 |
| CC(C)(Cc1c[nH]c2ccccc12)NCC(O)COc1ccccc1C#N (centres undefined) | Nuclear receptor subfamily 1 group I member 2 (Homo sapiens) (UniProt O75469) | 1 |
| CCN(CCCCOC(=O)c1ccc(OC)c(OC)c1)C(C)Cc1ccc(OC)cc1 (centres undefined) | Nuclear receptor subfamily 1 group I member 2 (Homo sapiens) (UniProt O75469) | -1 |
| CCCCCCCCCCCCSCCOCCO | Nuclear receptor subfamily 1 group I member 2 (Homo sapiens) (UniProt O75469) | -1 |
| NC(=O)c1cc[n+](CC2=C(C(=O)[O-])N3C(=O)[C@@H](NC(=O)Cc4cccs4)[C@H]3SC2)cc1 | Nuclear receptor subfamily 1 group I member 2 (Homo sapiens) (UniProt O75469) | -1 |
| Cc1c(Nc2ncccc2C(=O)O)cccc1C(F)(F)F | Nuclear receptor subfamily 1 group I member 2 (Homo sapiens) (UniProt O75469) | -1 |
| Nc1ccc(C(=O)Oc2ccccc2)c(O)c1 | Nuclear receptor subfamily 1 group I member 2 (Homo sapiens) (UniProt O75469) | -1 |
| CC[C@H](NC(C)C)[C@H](O)c1ccc(O)c2[nH]c(=O)ccc12 | Nuclear receptor subfamily 1 group I member 2 (Homo sapiens) (UniProt O75469) | -1 |
| CC(C)C[C@H](NC(=O)[C@H](Cc1ccccc1)NC(=O)c1cnccn1)B(O)O | Nuclear receptor subfamily 1 group I member 2 (Homo sapiens) (UniProt O75469) | -1 |
| COc1cc(C)c(Cc2cnc(N)nc2N)cc1OC | Nuclear receptor subfamily 1 group I member 2 (Homo sapiens) (UniProt O75469) | -1 |
| O=C(OC1C[C@H]2CC[C@@H](C1)[N+]21CCCC1)C(O)(c1ccccc1)c1ccccc1 (some centres undefined) | Nuclear receptor subfamily 1 group I member 2 (Homo sapiens) (UniProt O75469) | -1 |
| CC1=CC(=C(c2ccc(N)cc2)c2ccc(N)cc2)C=CC1=N | Nuclear receptor subfamily 1 group I member 2 (Homo sapiens) (UniProt O75469) | -1 |
| CCCCCCCCCCCCCCCCN | Nuclear receptor subfamily 1 group I member 2 (Homo sapiens) (UniProt O75469) | -1 |
| CC(C)(C)NCC(O)COc1ccc(NC(=O)NC2CCCCC2)cc1 (centres undefined) | Nuclear receptor subfamily 1 group I member 2 (Homo sapiens) (UniProt O75469) | -1 |
| COc1ccc(C(=O)c2ccc(C)cc2)c(O)c1 | Nuclear receptor subfamily 1 group I member 2 (Homo sapiens) (UniProt O75469) | -1 |
| O=C1c2ccccc2C(=O)c2c1ccc(O)c2O | Nuclear receptor subfamily 1 group I member 2 (Homo sapiens) (UniProt O75469) | 1 |
